# targetOfAssay: Trans-sialidase (Trypanosoma cruzi, UniProt Q26964)
# Sequence (Q26964 whole entry): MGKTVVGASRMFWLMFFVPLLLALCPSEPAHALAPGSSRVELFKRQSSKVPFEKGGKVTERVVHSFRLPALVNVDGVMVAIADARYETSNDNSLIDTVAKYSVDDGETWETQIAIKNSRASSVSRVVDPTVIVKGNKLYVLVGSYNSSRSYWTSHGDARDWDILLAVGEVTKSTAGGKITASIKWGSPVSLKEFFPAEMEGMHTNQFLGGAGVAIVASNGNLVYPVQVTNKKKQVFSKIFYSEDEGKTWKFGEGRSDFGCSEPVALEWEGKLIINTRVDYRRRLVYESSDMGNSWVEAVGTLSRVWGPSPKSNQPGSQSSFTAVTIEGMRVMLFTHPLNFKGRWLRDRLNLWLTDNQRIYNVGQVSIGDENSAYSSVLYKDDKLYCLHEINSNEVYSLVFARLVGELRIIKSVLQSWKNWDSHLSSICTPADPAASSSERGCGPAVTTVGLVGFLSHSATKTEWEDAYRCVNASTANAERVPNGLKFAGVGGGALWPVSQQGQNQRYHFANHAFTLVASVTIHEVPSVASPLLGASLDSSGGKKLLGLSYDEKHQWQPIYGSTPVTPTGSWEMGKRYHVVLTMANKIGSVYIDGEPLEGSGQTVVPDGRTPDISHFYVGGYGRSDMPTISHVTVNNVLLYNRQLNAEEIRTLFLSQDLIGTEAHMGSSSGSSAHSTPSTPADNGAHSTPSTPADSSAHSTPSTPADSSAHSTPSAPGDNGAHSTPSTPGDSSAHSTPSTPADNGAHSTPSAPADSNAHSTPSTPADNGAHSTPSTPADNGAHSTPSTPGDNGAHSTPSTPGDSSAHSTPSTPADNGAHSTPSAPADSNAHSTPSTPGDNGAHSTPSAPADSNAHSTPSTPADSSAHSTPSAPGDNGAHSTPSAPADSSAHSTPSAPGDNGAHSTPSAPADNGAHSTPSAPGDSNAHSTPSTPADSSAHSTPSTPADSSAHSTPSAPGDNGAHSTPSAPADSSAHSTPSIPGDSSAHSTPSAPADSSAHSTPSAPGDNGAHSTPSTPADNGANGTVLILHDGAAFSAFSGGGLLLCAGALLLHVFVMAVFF
# methodDescription: Inhibition of recombinant Trypanosoma cruzi trans-sialidase expressed in Escherichia coli BL21 (DE3) using MuNANA as substrate after 10 mins in presence of [D-glucose-1-14C]lactose by liquid scintillation counting method
experimentalEndpoint: Ki (mM)
One number for each entry, in mM.

Prompt line: Tell me Ki reported for CC(=O)N[C@H]1[C@H]([C@H](O)[C@H](O)CO)OC(C(=O)O)=C[C@@H]1O
Response line: 12.3

====

# targetOfAssay: Trans-sialidase (Trypanosoma cruzi)
# Sequence (Q26964 whole entry): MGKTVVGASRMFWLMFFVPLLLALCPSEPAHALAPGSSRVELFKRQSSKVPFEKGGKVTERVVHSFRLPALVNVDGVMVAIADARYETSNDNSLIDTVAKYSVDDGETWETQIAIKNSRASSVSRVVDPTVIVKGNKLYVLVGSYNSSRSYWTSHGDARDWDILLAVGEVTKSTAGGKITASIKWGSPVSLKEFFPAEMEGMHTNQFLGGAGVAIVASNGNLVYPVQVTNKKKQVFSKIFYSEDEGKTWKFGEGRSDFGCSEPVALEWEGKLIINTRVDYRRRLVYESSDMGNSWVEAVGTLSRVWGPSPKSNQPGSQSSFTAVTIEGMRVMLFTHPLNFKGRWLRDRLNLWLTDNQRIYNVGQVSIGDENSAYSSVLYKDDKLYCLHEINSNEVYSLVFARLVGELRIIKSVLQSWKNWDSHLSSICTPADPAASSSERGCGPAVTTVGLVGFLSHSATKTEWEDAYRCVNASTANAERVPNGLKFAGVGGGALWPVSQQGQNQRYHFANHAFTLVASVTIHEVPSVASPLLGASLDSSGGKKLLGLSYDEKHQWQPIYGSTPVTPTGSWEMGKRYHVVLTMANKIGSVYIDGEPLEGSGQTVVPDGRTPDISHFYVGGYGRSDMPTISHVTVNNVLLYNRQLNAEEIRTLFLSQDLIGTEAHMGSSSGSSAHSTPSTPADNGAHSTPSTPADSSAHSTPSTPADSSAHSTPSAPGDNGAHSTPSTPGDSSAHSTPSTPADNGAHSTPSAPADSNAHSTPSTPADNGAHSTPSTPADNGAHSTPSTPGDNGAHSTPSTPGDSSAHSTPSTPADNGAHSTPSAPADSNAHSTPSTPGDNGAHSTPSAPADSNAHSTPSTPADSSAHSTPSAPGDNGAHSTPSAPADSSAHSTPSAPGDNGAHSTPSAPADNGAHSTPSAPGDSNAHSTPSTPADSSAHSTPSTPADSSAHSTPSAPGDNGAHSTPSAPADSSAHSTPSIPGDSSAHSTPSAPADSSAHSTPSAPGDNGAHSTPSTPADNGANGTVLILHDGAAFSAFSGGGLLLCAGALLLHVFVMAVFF
# methodDescription: Inhibition of recombinant HisA-tagged Trypanosoma cruzi trans-sialidase expressed in Escherichia coli BL21 (DE3) using MuNANA as substrate pretreated for 10 mins followed by substrate addition by fluorescence assay
experimentalEndpoint: pIC50
One number for each entry, as −log10 of the molar value.

Here is how some compounds turned out for pIC50.
O=P(O)(O)C(Nc1cccc(-c2ccccc2)c1)c1ccccc1 (racemic)	2.25
O=P(O)(O)C(Nc1cccc2ccccc12)c1ccc(Cl)cc1 (racemic)	3.15
O=P(O)(O)C(Nc1ccccc1-c1ccccc1)c1ccccc1 (racemic)	3.20
O=P(O)(O)C(Nc1cccc2ccccc12)c1cc(C(F)(F)F)cc(C(F)(F)F)c1 (racemic)	2.63
CC(=O)Nc1ccc(C(Nc2cccc3ccccc23)P(=O)(O)O)cc1 (racemic)	3.64
O=P(O)(O)C(Nc1cccc2ccccc12)c1ccc(C(F)(F)F)cc1 (racemic)	3.54
COc1ccc(C(Nc2cccc3ccccc23)P(=O)(O)O)cc1 (racemic)	3.57
O=[N+]([O-])c1ccc(C(Nc2cccc3ccccc23)P(=O)(O)O)cc1 (racemic)	3.68
O=P(O)(O)C(Nc1cccc2ccccc12)c1ccccc1 (racemic)	3.33

Now for the compound whose pIC50 we want.
Prompt line: Tell me pIC50 reported for O=P(O)(O)C(Nc1ccc2ccccc2c1)c1ccccc1 (racemic)
Response line: 3.29

====

# targetOfAssay: Sialidase A (Streptococcus pneumoniae, UniProt P62575)
# Sequence (P62575 whole entry): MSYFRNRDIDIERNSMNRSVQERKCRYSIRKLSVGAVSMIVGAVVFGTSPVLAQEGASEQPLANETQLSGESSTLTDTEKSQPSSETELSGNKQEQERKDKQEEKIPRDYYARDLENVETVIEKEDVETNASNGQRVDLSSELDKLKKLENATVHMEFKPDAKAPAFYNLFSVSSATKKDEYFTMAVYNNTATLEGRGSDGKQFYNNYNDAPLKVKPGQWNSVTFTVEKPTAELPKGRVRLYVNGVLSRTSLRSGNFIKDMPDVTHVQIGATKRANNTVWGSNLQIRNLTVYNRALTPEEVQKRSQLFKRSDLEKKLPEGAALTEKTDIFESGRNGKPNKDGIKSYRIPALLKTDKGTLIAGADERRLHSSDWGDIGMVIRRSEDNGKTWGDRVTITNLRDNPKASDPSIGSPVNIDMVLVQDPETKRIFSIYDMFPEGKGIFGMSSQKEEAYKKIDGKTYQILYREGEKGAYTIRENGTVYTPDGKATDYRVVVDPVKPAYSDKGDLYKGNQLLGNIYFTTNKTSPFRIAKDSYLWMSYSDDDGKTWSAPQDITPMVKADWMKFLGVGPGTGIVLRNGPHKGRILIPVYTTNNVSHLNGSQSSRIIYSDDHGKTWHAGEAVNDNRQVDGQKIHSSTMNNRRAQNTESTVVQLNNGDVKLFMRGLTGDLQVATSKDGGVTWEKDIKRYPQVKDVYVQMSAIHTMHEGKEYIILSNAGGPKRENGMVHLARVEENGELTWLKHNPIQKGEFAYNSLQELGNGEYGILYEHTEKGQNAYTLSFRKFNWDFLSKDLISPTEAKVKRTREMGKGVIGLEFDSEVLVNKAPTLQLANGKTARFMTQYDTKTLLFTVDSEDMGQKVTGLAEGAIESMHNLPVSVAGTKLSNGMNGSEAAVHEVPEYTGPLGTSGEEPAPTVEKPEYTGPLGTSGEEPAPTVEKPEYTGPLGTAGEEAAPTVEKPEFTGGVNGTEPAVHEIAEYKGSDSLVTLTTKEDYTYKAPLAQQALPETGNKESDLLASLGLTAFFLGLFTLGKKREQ
experimentalEndpoint: pIC50
Numbers only, as −log10 of the molar value.

Prompt line: Tell me pIC50 reported for O=[N+]([O-])c1ccc(C(Nc2cccc3ccccc23)P(=O)(O)O)cc1 (racemic)
Response line: 2.85
